# method: MTT cytotoxicity towards normal cells, 48 h
# Format: cell-based
# particulars: MRC-5 cells (normal embryonic lung fibroblasts), human embryonal lung fibroblast cell, without UVA, read-out: Cytotoxic activity MRC-5 IC50
Where a name gives a salt, the structure may show the parent alone.
value kind: IC50 at 48 h (µM)
Numbers only; they are read as µM.

Worked set:
molecule | endpoint unit | IC50 at 48 h
COc1c2occc2c(NC(=O)c2cccc([N+](=O)[O-])c2)c2ccc(=O)oc12 | µM | 77.3
COc1cccc2c1C(=O)c1c(O)c3c(c(O)c1C2=O)C[C@@](O)(C(=O)CO)C[C@@H]3O[C@H]1C[C@H](N)[C@H](O)[C@H](C)O1 [Doxorubicin, reference compound] | µM | 3.07
CC/C(=C(\c1ccccc1)c1ccc(OCCN(C)C)cc1)c1ccccc1 [Tamoxifen citrate, reference compound] | µM | 67.6

Query: Which IC50 at 48 h value belongs to CS(=O)(=O)CCNCc1ccc(-c2ccc3ncnc(Nc4ccc(OCc5cccc(F)c5)c(Cl)c4)c3c2)o1 [Lapatinib, reference compound] ?
Result: 48.8

The reported measurements were obtained from paper PMC9356065.
